The values you see were collected from ChEMBL document CHEMBL4007403.

Molecular target: dCTP pyrophosphatase 1 (Homo sapiens, UniProt Q9H773)
Sequence (Q9H773 whole entry): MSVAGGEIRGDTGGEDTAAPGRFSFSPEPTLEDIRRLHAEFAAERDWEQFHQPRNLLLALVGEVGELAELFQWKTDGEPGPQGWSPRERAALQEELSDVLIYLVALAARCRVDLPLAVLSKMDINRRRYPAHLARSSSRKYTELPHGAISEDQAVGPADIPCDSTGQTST
Test: Inhibition of recombinant human N-terminal His-tagged dCTPase 1 expressed in Escherichia coli BL21(DE3)pLysS using dCTP as substrate after 1 hr by malachite green reagent based assay
Hi! Could you tag entries with IC50 below 400 nM as Condition met, and those at or above as Condition not met? Much appreciated.

Previously resolved entries follow.
COc1cccc(-c2nnc3sc(-c4ccncc4)nn23)c1: Condition not met
COc1ccc(-c2nn3c(-c4ccccc4F)nnc3s2)cc1: Condition met
Cc1cc(-c2nn3c(-c4cccs4)nnc3s2)n[nH]1: Condition not met
CCCc1nnc2sc(-c3ccc(OC)cc3)nn12: Condition not met
Clc1ccc(-c2nn3c(-c4ccccn4)nnc3s2)c(Cl)c1: Condition not met

Prompt line: For "Brc1ccc(-c2nn3c(-c4ccccn4)nnc3s2)cc1" , is the recorded IC50 below the cut-off of 400 nM?
Response line: Condition met

----------
Give log10 of IC50 for every item shown.
target: dCTP pyrophosphatase 1 (Homo sapiens); assay: Inhibition of recombinant human N-terminal His-tagged dCTPase 1 expressed in Escherichia coli BL21(DE3)pLysS using dCTP as substrate after 1 hr by malachite green reagent based assay
A difference of one corresponds to tenfold IC50; all values are log10 with IC50 in nM.

Brc1ccccc1-c1nn2c(-c3ccccn3)nnc2s1: 2.52

Dear colleague, could you please provide log10 of IC50 for the compounds listed below?
1. COc1ccccc1-c1nn2c(-c3ccccn3)nnc2s1
2. Cc1onc(-c2cccs2)c1-c1nn2c(-c3ccco3)nnc2s1
3. COc1cc(OC)cc(-c2nn3c(-c4ccccn4)nnc3s2)c1
4. c1ccc(-c2nnc3sc(-c4ccc5ccccc5c4)nn23)nc1
5. c1csc(-c2nnc3sc(-c4cnccn4)nn23)c1

Response line:
[3.01, 3.01, 2.44, 1.98, 2.23]

----------
target: Inosine triphosphate pyrophosphatase (Homo sapiens, UniProt Q9BY32)
pIC50: −log10 of the molar value.
quantity-name: pIC50

Prompt line: Provide pIC50, system Inosine triphosphate pyrophosphatase (Homo sapiens, UniProt Q9BY32), entry "COc1ccc(-c2nn3c(-c4cccs4)nnc3s2)cc1OC"
Response line: < 4.00

----------
Target: UniProtKB Q9NV35
Sequence (Q9NV35 whole entry): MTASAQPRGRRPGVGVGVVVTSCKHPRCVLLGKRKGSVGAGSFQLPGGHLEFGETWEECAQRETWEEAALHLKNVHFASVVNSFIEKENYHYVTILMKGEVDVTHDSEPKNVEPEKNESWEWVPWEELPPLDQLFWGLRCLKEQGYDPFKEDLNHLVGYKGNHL
pIC50: −log10 of the molar value.
quantity-name: pIC50

Prompt line: Check the records and state pIC50 for "COc1ccc(-c2nn3c(-c4cccs4)nnc3s2)cc1OC"
Response line: < 4.00

----------
target: UniProt:Q9H773; assay: Inhibition of recombinant human N-terminal His-tagged dCTPase 1 expressed in Escherichia coli BL21(DE3)pLysS using dCTP as substrate after 1 hr by malachite green reagent based assay
quantity-name: log10 of IC50 (log10 of the value in nM)
A difference of one corresponds to tenfold IC50; all values are log10 with IC50 in nM.

Solved entries:
Cc1ccc(-c2nn3c(-c4ccccn4)nnc3s2)cc1C: 2.36
COc1ccc(-c2nn3c(-c4ccco4)nnc3s2)cc1OC: 1.28
Ic1ccccc1-c1nn2c(-c3ccccn3)nnc2s1: 2.70
c1ccc(-c2nn3c(-c4ccccn4)nnc3s2)cc1: 2.79
Cc1ccccc1-c1nn2c(-c3cnccn3)nnc2s1: 2.84
CCCCc1nnc2sc(-c3cccc(OC)c3)nn12: 3.31

Dear colleague, could you please provide log10 of IC50 for the compounds listed below?
1. c1ccc(-c2nnc3sc(-c4ccc5c(c4)OCO5)nn23)nc1
2. Brc1cccc(-c2nn3c(-c4ccccn4)nnc3s2)c1
3. COc1cccc(-c2nn3c(-c4ccccn4)nnc3s2)c1
4. c1ccc(-c2nnc3sc(-c4cc5ccccc5o4)nn23)nc1
5. Clc1cccc(-c2nn3c(-c4ccccn4)nnc3s2)c1

Response line:
[2.28, 2.78, 3.27, 2.60, 2.43]

----------
test: Hepatic extraction ratio in human liver microsomes up to 100 uM preincubated for 10 mins followed by NADPH addition by UPLC-MS analysis; assay type: ADME, microsome; details: read-out: ERH
Give hepatic extraction ratio for every item shown.
Answers are plain numbers.

Solved entries:
COc1ccc(-c2nn3c(-c4ccco4)nnc3s2)cc1OC: 0.91
Cc1cc(-c2nn3c(-c4cccs4)nnc3s2)n[nH]1: 0.79
c1ccc(-c2nnc3sc(-c4ccc5c(c4)OCO5)nn23)nc1: 0.96
COc1ccc(-c2nn3c(-c4ccccn4)nnc3s2)cc1OC: 0.67

Moving on to the next compound.
Prompt line: Check the records and state hepatic extraction ratio for "c1csc(-c2nnc3sc(-c4cnccn4)nn23)c1"
Response line: 0.89

----------
test: Inhibition of human His-tagged dUTPase expressed in bacterial expression system after 1 hr by malachite green reagent based assay
pIC50: −log10 of the molar value.
quantity-name: pIC50

Prompt line: Check the records and state pIC50 for "COc1ccc(-c2nn3c(-c4cccs4)nnc3s2)cc1OC"
Response line: < 4.00

----------
Give half-life for every item shown.
test: Half life in mouse liver microsomes up to 100 uM preincubated for 10 mins followed by NADPH addition by UPLC-MS analysis; assay type: ADME, microsome
Give bare numbers, in min.

Dear colleague, could you please provide half-life for the molecules listed below?
1. c1csc(-c2nnc3sc(-c4cnccn4)nn23)c1
2. COc1ccc(-c2nn3c(-c4ccco4)nnc3s2)cc1OC
3. COc1ccc(-c2nn3c(-c4cccs4)nnc3s2)cc1OC
4. c1ccc(-c2nnc3sc(-c4ccc5c(c4)OCO5)nn23)nc1
5. Cc1cc(-c2nn3c(-c4cccs4)nnc3s2)n[nH]1
6. COc1ccc(-c2nn3c(-c4ccccn4)nnc3s2)cc1OC

Response line:
1: 1; 2: 1; 3: 1; 4: 1; 5: 2; 6: 3

----------
biological target: ADP-sugar pyrophosphatase (Homo sapiens); experiment: Inhibition of human His-tagged NUDT5 expressed in bacterial expression system in presence of ADP after 1 hr by malachite green reagent based assay
quantity-name: IC50

Prompt line: Check the records and state IC50 for "COc1ccc(-c2nn3c(-c4cccs4)nnc3s2)cc1OC"
Response line: > 100 µM

----------
test: Kinetic solubility of the compound; type: physicochemical; conditions: read-out: Kinetic_solubility
Quick rule for you: solubility kinetic at 20 µM or higher means Fulfilled, lower means Not fulfilled.

Prompt line: Decide: solubility kinetic of "COc1ccc(-c2nn3c(-c4ccccn4)nnc3s2)cc1OC" >= 20 µM?
Response line: Fulfilled

Prompt line: Decide: solubility kinetic of "COc1ccc(-c2nn3c(-c4cccs4)nnc3s2)cc1OC" >= 20 µM?
Response line: Not fulfilled

Prompt line: Decide: solubility kinetic of "Cc1cc(-c2nn3c(-c4cccs4)nnc3s2)n[nH]1" >= 20 µM?
Response line: Fulfilled

Prompt line: Decide: solubility kinetic of "c1csc(-c2nnc3sc(-c4cnccn4)nn23)c1" >= 20 µM?
Response line: Fulfilled

Prompt line: Decide: solubility kinetic of "COc1ccc(-c2nn3c(-c4ccco4)nnc3s2)cc1OC" >= 20 µM?
Response line: Not fulfilled

Prompt line: Decide: solubility kinetic of "c1ccc(-c2nnc3sc(-c4ccc5c(c4)OCO5)nn23)nc1" >= 20 µM?
Response line: Fulfilled

----------
target: Oxidized purine nucleoside triphosphate hydrolase (Homo sapiens, UniProt P36639); test: Inhibition of recombinant human MTH1 using dGTP as substrate after 1 hr by malachite green reagent based assay
pIC50: −log10 of the molar value.
quantity-name: pIC50

Prompt line: Check the records and state pIC50 for "COc1ccc(-c2nn3c(-c4cccs4)nnc3s2)cc1OC"
Response line: < 4.00

----------
assay: Stability of the compound in biochemical assay buffer under mildly acidic mobile phase conditions by HPLC-MS analysis; type: physicochemical
quantity-name: Stability

Solved entries:
CCCCc1nnc2sc(-c3cc(C)nc4ccccc34)nn12: Stable
Cc1ccc(-c2nn3c(-c4ccccn4)nnc3s2)cc1C: Stable
COc1cc(OC)cc(-c2nn3c(-c4ccccn4)nnc3s2)c1: Stable
COc1ccc(-c2nn3c(-c4ccccn4)nnc3s2)cc1: Stable

Dear colleague, could you please provide Stability for the compounds listed below?
1. Cc1ccccc1-c1nn2c(-c3ccccn3)nnc2s1
2. c1coc(-c2nnc3sc(-c4ccc5ccccc5n4)nn23)c1
3. Clc1ccccc1-c1nn2c(-c3ccccn3)nnc2s1
4. Cc1onc(-c2cccs2)c1-c1nn2c(-c3ccco3)nnc2s1
5. Fc1ccccc1-c1nnc2sc(-c3ccccc3)nn12
6. COc1ccc(-c2nn3c(-c4ccccn4)nnc3s2)cc1OC

Response line:
["Stable", "Stable", "Stable", "Stable", "Stable", "Stable"]

Dear colleague, could you please provide Stability for the compounds listed below?
1. C(=C\c1cccnc1)/Cc1nn2c(-c3ccco3)nnc2s1
2. Cc1cc(-c2nn3c(-c4ccccn4)nnc3s2)c2ccccc2n1

Response line:
1. Stable
2. Stable
